Assay: in vivo
Conditions: mouse, brain, po, 10 mg/kg
parameter: Tmax (min)
Numbers only, in min.

The measured Tmax associated with O=C1CN2c3c(cccc3[C@@H]3CN(CCCOc4ccc(F)cc4)CC[C@@H]32)N1 reads 15
